system.tested: CSNK2A1 (human) (UniProt P68400)
Sequence (P68400 whole entry, looked up): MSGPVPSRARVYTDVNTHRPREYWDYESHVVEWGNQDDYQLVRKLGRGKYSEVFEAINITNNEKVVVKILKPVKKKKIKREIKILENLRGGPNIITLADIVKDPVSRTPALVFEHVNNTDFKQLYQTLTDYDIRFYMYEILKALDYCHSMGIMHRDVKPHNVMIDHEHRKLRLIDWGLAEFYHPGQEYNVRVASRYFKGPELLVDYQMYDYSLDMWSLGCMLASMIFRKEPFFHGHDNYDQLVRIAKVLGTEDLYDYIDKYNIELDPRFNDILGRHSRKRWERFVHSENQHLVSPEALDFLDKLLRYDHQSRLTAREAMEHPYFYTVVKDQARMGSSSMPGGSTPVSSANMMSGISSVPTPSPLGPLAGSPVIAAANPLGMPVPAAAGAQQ
test: Free Choice Kinase Assay Projects, Flashplate
measurement.context: compound 10.0 µM; ATP 0.1 µM
property.label: residual activity (%)
Number only, in %; omit the unit.

-- ask Query (molecule): Fc1ccc(-c2[nH]c(CCc3ccccc3)nc2-c2ccncc2)cc1 ; field requested: residual activity
-- reply 81

-- ask State the recorded residual activity for this entry: Fc1ccc(-c2[nH]c(SCCCc3ccccc3)nc2-c2ccncc2)cc1
-- reply 87

* * *

system.tested: UniProt:O00444
Sequence (O00444 whole entry, looked up): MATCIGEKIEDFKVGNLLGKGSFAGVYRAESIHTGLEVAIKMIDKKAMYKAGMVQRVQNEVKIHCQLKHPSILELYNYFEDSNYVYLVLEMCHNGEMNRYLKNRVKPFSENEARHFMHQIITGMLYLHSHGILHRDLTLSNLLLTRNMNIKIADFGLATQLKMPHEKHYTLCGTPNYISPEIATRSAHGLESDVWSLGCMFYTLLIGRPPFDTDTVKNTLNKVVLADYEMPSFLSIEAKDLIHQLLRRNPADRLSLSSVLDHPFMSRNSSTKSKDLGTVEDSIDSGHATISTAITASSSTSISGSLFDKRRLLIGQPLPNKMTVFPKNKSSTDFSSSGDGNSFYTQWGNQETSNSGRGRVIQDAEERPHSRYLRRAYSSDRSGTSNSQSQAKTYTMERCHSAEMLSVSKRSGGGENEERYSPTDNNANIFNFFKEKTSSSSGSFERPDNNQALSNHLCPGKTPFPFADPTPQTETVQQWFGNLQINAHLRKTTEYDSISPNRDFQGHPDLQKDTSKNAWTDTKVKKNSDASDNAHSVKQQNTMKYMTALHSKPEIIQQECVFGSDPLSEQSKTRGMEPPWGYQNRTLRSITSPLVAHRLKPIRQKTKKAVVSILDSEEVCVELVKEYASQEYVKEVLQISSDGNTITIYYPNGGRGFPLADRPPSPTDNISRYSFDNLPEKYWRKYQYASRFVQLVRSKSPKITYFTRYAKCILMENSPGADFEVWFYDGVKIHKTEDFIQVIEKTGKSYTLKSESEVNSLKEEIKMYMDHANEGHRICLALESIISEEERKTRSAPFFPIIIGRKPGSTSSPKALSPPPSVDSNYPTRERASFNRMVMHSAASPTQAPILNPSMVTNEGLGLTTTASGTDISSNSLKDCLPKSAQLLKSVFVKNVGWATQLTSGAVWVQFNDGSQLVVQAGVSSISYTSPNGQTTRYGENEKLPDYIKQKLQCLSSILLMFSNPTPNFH
test: Free Choice Kinase Assay Projects, Flashplate
measurement.context: compound 10.0 µM; ATP 0.3 µM
property.label: residual activity (%)
Unit % implied. Number only.

Here are 3 compounds together with their reported answers.
Oc1ccc(CSc2nc(-c3ccncc3)c(-c3ccc(F)cc3)[nH]2)cc1 = 51
CSc1nc(-c2ccnc(NC(C)=O)c2)c(-c2ccc(F)cc2)n1C = 70
Fc1ccc(-c2[nH]c(SCc3ccccc3)nc2-c2ccncc2)cc1 = 71

Now consider the entry below.
-- ask Lab note: need residual activity with UniProt:O00444 for entry N#CCSc1nc(-c2ccncc2)c(-c2ccc(F)cc2)[nH]1 , please look it up.
-- reply 57

Taken from the kinase profiling compilation of Christmann-Franck et al. (2016).
